TESTED_SYSTEM: p97 (Homo sapiens)
Construct: made in house
TEST_DESCRIPTION: p97 biochemical assay (ATPase activity, PNP/MesG coupled)
CONDITION_INFO: read-out: p97 Inhib. (%) at 0.10 µM, compound 0.10 µM; 0.2 mM ATP; 5 min preincubation
inhibition at 0.1 µM by entry:

Sample records with inhibition at 0.1 µM:
C=CC(=O)Nc1cccc2c1cc(C)n2-c1nc(NCc2ccccc2)cc(N2CCCCC2)n1 = 64%
C=CC(=O)Nc1cccc2c1cc(C)n2-c1nc(NCc2ccccc2)cc(N2CCOCC2)n1 = 77%
CC#CC(=O)Nc1cccc2c1cc(C)n2-c1nc(NCc2ccccc2)cc(C2CCCCC2)n1 [Compound 10a] = ~90%
C=CS(=O)(=O)Nc1cccc2c1cc(C)n2-c1nc(NCc2ccccc2)cc(C2CCCCC2)n1 [Compound 10c] = 68%
CC#CC(=O)Nc1cccc2c1cc(C)n2-c1nc2c(c(NCc3ccccc3)n1)CCCC2 [Compound 6a, reference compound] = 57%
Cc1cc(OCc2nnc(SC3CCCC3)n2-c2cccnc2)ccc1-c1ccc(S(C)(=O)=O)cc1 [NMS-873, reference compound] = 5%
CC#CC(=O)Nc1cccc2c1cc(C)n2-c1nc2c(c(NCc3ccccc3)n1)COCC2 [Compound 6b, reference compound] = 38%
C=CC(=O)Nc1cccc2c1cc(C)n2-c1nc(NCc2ccccc2)cc(C2CCCCC2)n1 [Compound 10b] = 70%

We next turn to a different compound, shown below.
Name the reported inhibition at 0.1 µM value associated with the compound C=CS(=O)(=O)Nc1cccc2c1cc(C)n2-c1nc(NCc2ccccc2)cc(N2CCCCC2)n1
73%

---

TESTED_SYSTEM: p97 (Homo sapiens, UniProt P55072)
Construct: made in house
Sequence (P55072 whole entry): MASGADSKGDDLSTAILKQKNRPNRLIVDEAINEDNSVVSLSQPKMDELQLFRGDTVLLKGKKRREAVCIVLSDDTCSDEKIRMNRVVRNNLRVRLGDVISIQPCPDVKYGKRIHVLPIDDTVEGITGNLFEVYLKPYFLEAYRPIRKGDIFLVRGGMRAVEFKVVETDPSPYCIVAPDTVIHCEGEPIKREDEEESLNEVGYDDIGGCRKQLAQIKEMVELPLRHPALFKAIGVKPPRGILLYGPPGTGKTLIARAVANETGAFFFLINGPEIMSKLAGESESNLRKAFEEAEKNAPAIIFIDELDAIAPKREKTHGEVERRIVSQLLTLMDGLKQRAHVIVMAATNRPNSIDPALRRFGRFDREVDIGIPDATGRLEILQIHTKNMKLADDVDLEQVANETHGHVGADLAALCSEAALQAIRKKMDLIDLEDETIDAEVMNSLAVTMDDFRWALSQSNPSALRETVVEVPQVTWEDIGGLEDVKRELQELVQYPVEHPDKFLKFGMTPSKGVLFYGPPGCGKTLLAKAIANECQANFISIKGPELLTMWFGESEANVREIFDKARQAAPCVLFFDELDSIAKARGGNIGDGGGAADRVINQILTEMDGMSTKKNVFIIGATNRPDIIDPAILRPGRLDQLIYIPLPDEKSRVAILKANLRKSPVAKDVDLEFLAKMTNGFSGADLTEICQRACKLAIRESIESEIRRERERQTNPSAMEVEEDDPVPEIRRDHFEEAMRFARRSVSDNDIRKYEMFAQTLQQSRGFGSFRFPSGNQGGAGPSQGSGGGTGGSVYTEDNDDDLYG
TEST_DESCRIPTION: p97 biochemical assay (ATPase activity, PNP/MesG coupled)
CONDITION_INFO: read-out: p97 Inhib. (%) at 1.0 µM, compound 1.0 µM; 0.2 mM ATP; 5 min preincubation
MEASUREMENT_TYPE: inhibition at 1 µM (%)
API: value field is a number in %; no unit string.

In the examples that follow, each entry is paired with its recorded inhibition at 1 µM.
Cc1cc(OCc2nnc(SC3CCCC3)n2-c2cccnc2)ccc1-c1ccc(S(C)(=O)=O)cc1 [NMS-873, reference compound] = 84
C=CS(=O)(=O)Nc1cccc2c1cc(C)n2-c1nc(NCc2ccccc2)cc(C2CCCCC2)n1 [Compound 10c] = 95

Param item = C=CS(=O)(=O)Nc1cccc2c1cc(C)n2-c1nc(NCc2ccccc2)cc(N2CCCCC2)n1 ; retrieve measured inhibition at 1 µM.
95

So what's the measured inhibition at 1 µM for this one? CC#CC(=O)Nc1cccc2c1cc(C)n2-c1nc2c(c(NCc3ccccc3)n1)CCCC2 [Compound 6a, reference compound]
97

---

TESTED_SYSTEM: p97 (Homo sapiens)
Construct: made in house
TEST_DESCRIPTION: p97 biochemical assay (ATPase activity, PNP/MesG coupled)
CONDITION_INFO: read-out: p97 Inhib. (%) at 0.10 µM, compound 0.10 µM; 0.2 mM ATP; 5 min preincubation
MEASUREMENT_TYPE: inhibition at 0.1 µM (%)
Report the value in % with no unit label.

C=CS(=O)(=O)Nc1cccc2c1cc(C)n2-c1nc(NCc2ccccc2)cc(N2CCOCC2)n1 [Compound 8c] = 65

What value of measured inhibition at 0.1 µM is listed for Cc1cc2c(C(N)=O)cccc2n1-c1nc(NCc2ccccc2)cc(C2CCCCC2)n1 [Compound 12] ?
18

---

Each entry below carries its reported inhibition at 1 µM.
TESTED_SYSTEM: p97 (Homo sapiens)
Construct: made in house
TEST_DESCRIPTION: p97 biochemical assay (ATPase activity, PNP/MesG coupled)
CONDITION_INFO: read-out: p97 Inhib. (%) at 1.0 µM, compound 1.0 µM; 0.2 mM ATP; 5 min preincubation
Respond with the bare value in %.

Worked examples follow.
C=CC(=O)Nc1cccc2c1cc(C)n2-c1nc(NCc2ccccc2)cc(C2CCCCC2)n1 [Compound 10b] = 96
C=CC(=O)Nc1cccc2c1cc(C)n2-c1nc(NCc2ccccc2)cc(N2CCCCC2)n1 = 91
CC#CC(=O)Nc1cccc2c1cc(C)n2-c1nc(NCc2ccccc2)cc(C2CCCCC2)n1 [Compound 10a] = 100
C=CC(=O)Nc1cccc2c1cc(C)n2-c1nc(NCc2ccccc2)cc(N2CCOCC2)n1 = 96
CC#CC(=O)Nc1cccc2c1cc(C)n2-c1nc(NCc2ccccc2)cc(N2CCCCC2)n1 = 100

So what does the record say about inhibition at 1 µM for Cc1cc2c(C(N)=O)cccc2n1-c1nc(NCc2ccccc2)cc(C2CCCCC2)n1 ?
21

Look at this compound and give its reported inhibition at 1 µM. CC#CC(=O)Nc1cccc2c1cc(C)n2-c1nc2c(c(NCc3ccccc3)n1)COCC2 [Compound 6b, reference compound]
95

Give its inhibition at 1 µM value. Item: CC#CC(=O)Nc1cccc2c1cc(C)n2-c1nc(NCc2ccccc2)cc(N2CCOCC2)n1
97

Can you look up the measured inhibition at 1 µM of C=CS(=O)(=O)Nc1cccc2c1cc(C)n2-c1nc(NCc2ccccc2)cc(N2CCOCC2)n1 for me?
89
